Each entry below carries its recorded MIC.
System: Aspergillus flavus
Experiment: MIC, RPMI medium
Assay type: cell-based
Conditions: Aspergillus flavus, MIC banded into grades, read-out: MIC grade, A. flavus
Description: Between 1 and 5 mgs of compound were accurately weighed out into a sterile Eppendorf tube. The compound was dissolved in DMSO to give a solution containing 5 mg/mL. Tubes were stored at −20° C. until required. On the day of testing thawed solutions were vortex mixed to ensure homogeneity. […] This produced MIC plates with a drug range 50-0.05 mg/L and organism inocula of 1−2×10^4 cfu/mL. […] Growth was assessed by monitoring the optical density at 485 nm for each well. […]

See these solved cases before continuing.
1. COCCn1c(C)cc(-c2ccccc2)c1C(=O)C(=O)Nc1ccc(N2CCN(c3ccccn3)CC2)cc1F 1 to 10 µg/mL
2. Cc1cc(-c2ccccc2)c(C(=O)C(=O)Nc2cccc3ccncc23)n1C 1 to 10 µg/mL
3. COCCn1ccc(-c2ccccc2)c1C(=O)C(=O)Nc1ccc(N2CCN(c3cc(C)cc(C)n3)CC2)cc1 1 to 10 µg/mL

Turning to the following compound.
-- ask So what's the measured MIC for this one? `Cc1cc(C)nc(N2CCN(c3ccc(NC(=O)C(=O)c4c(-c5cccs5)cc(C)n4C)cc3)CC2)c1`
-- reply < 1 µg/mL

====

Test system: Aspergillus flavus
Assay: MIC, RPMI medium
Type: cell-based
Conditions: Aspergillus flavus, MIC banded into grades, read-out: MIC grade, A. flavus
Each entry below carries its recorded MIC.

-- ask So what's the measured MIC for this one? Cc1cc(C)nc(N2CCN(c3ccc(NC(=O)C(=O)c4c(-c5ccccc5)cc(C)n4C)cc3O)CC2)c1 [Example 22]
-- reply < 1 µg/mL

====

Each entry below carries its recorded MIC.
Test system: Aspergillus flavus
Test: MIC, RPMI medium
Assay type: cell-based
Conditions: Aspergillus flavus, MIC banded into grades, read-out: MIC grade, A. flavus

See these solved cases before continuing.
1. Cc1cc(-c2ccccc2)c(C(=O)C(=O)Nc2ccc(N3CCN(c4ccccn4)CC3)c(F)c2)n1C > 10 µg/mL
2. Cc1cc(C)nc(N2CCN(c3ccc(NC(=O)C(=O)c4c(-c5ccccc5)ccn4CC(N)=O)cc3)CC2)c1 > 10 µg/mL
3. COCCc1cc(-c2ccccc2)c(C(=O)C(=O)Nc2ccc(N3CCN(c4cc(C)cc(C)n4)CC3)cc2)n1C < 1 µg/mL

Turning to the following molecule.
-- ask So what's the measured MIC for this one? `Cc1cc(-c2ccccc2)c(C(=O)C(=O)Nc2cnc3ccccc3c2)n1C`
-- reply < 1 µg/mL

====

Test system: Aspergillus flavus
Assay: MIC, RPMI medium
Type: cell-based
Settings: Aspergillus flavus, MIC banded into grades, read-out: MIC grade, A. flavus
Each entry below carries its recorded MIC.

1. CCc1cc(-c2ccccc2)c(C(=O)C(=O)Nc2ccc(N3CCN(c4cc(C)cc(C)n4)CC3)cc2)n1C < 1 µg/mL
2. CCCOCCn1c(C)cc(-c2ccccc2)c1C(=O)C(=O)Nc1ccc(N2CCN(c3cc(C)cc(C)n3)CC2)cc1 > 10 µg/mL
3. CNC(=O)Cn1ccc(-c2ccccc2)c1C(=O)C(=O)Nc1ccc(N2CCN(c3cc(C)cc(C)n3)CC2)cc1 > 10 µg/mL

Turning to the following compound.
-- ask So what's the measured MIC for this one? `Cc1cc(-c2ccccc2)c(C(=O)C(=O)Nc2ccc(N3CCCCC3)c(F)c2)n1C`
-- reply < 1 µg/mL

====

Test system: Aspergillus flavus
Assay: MIC, RPMI medium
Assay type: cell-based
Conditions: Aspergillus flavus, MIC banded into grades, read-out: MIC grade, A. flavus
Each entry below carries its recorded MIC.

See these solved cases before continuing.
1. Cc1cc(-c2ccccc2)c(C(=O)C(=O)Nc2ccncc2)n1C > 10 mg/L
2. COCCn1c(C)cc(-c2ccccc2)c1C(=O)C(=O)Nc1ccc(N2CCN(c3cc(C)cc(C)n3)CC2)c(Cl)c1 1 to 10 mg/L
3. COCCn1c(C)cc(C(C)C)c1C(=O)C(=O)Nc1ccc(N2CCN(c3cc(C)cc(C)n3)CC2)cc1 > 10 mg/L
4. Cc1cc(C)nc(N2CCN(c3ccc(NC(=O)C(=O)c4c(-c5ccccc5)cc(C)n4C)cc3Cl)CC2)c1 < 1 mg/L

-- ask So what's the measured MIC for this one? `Cc1cc(-c2ccccc2)c(C(=O)C(=O)Nc2ccc(N3CCCC3)nc2)n1C`
-- reply < 1 mg/L

-- ask What do we get for `COCCn1c(C)c(F)c(-c2ccccc2)c1C(=O)C(=O)Nc1ccc(N2CCN(c3cc(C)cc(C)n3)CC2)cc1` ?
-- reply > 10 mg/L

-- ask What do we get for `Cc1cc(C)nc(N2CCN(c3ccc(NC(=O)C(=O)c4c(-c5ccccc5)cc(C)n4Cc4ccccn4)cc3)CC2)c1` ?
-- reply > 10 mg/L

====

Test system: Candida albicans
Assay: MIC, RPMI medium
Assay type: cell-based
Settings: Candida albicans, 24-48 h at 35° C., >80% growth inhibition, banded into grades
ATTRIBUTE MEASURED: MIC

See these solved cases before continuing.
1. Cc1cc(C)nc(N2CCN(c3ccc(NC(=O)C(=O)c4c(-c5ccccc5)ccn4CCN(C)C)cc3)CC2)c1 < 1 µg/mL
2. Cc1cc(C)nc(N2CCN(c3ccc(NC(=O)C(=O)c4cc(-c5ccccc5)cn4CCN(C)C)cc3)CC2)c1 1 to 10 µg/mL
3. COCn1ccc(-c2ccccc2)c1C(=O)C(=O)Nc1ccc(N2CCN(c3cc(C)cc(C)n3)CC2)cc1 1 to 10 µg/mL
4. C=C(C)CN1CCN(c2ccc(NC(=O)C(=O)c3c(-c4ccccc4)cc(C)n3CCOC)c(F)c2)CC1 < 1 µg/mL
5. COCCn1ccc(-c2ccccc2)c1C(=O)C(=O)Nc1ccc(N2CCN(c3cc(C)cc(C)n3)CC2)cc1 1 to 10 µg/mL
6. COCCn1c(C)cc(-c2ccccc2)c1C(=O)C(=O)Nc1ccc(N2CCCCC2)cc1F < 1 µg/mL

-- ask So what's the measured MIC for this one? `CNC(=O)Cn1ccc(-c2ccccc2)c1C(=O)C(=O)Nc1ccc(N2CCN(c3cc(C)cc(C)n3)CC2)cc1`
-- reply < 1 µg/mL

====

Each entry below carries its recorded MIC.
Tested on: Aspergillus terreus AT49
Test: MIC, YAG medium
Assay type: cell-based
Details: Aspergillus terreus, 24 h at 35° C, MIC banded into grades, read-out: MIC grade, A. terreus 49
Description: Between 1 and 5 mgs of compound were accurately weighed out into a sterile Eppendorf tube. The compound was dissolved in DMSO to give a solution containing 5 mg/mL. Tubes were stored at −20° C. until required. On the day of testing thawed solutions were vortex mixed to ensure homogeneity. […] This produced MIC plates with a drug range 50-0.05 mg/L and organism inocula of 1−2×10^4 cfu/mL for Aspergillus spp. […] Growth was assessed by monitoring the optical density at 485 nm for each well. […]

1. Cc1cc(-c2ccccc2)c(C(=O)C(=O)Nc2ccc(N3CCN(CC(C)(C)C)CC3)cc2F)n1C < 1 mg/L
2. COCCn1ccc(C(C)C)c1C(=O)C(=O)Nc1ccc(N2CCN(c3cc(C)cc(C)n3)CC2)cc1 1 to 10 mg/L
3. Cc1cc(C)nc(N2CCN(c3ccc(NC(=O)C(=O)c4ccc(C)n4-c4ccccc4)cc3)CC2)c1 < 1 mg/L
4. Cc1cc(-c2ccccc2)c(C(=O)C(=O)Nc2cccc3c2CCO3)n1C < 1 mg/L
5. COCCn1c(C)cc(-c2ccccc2)c1C(=O)C(=O)Nc1cccc2ccncc12 > 10 mg/L

-- ask So what's the measured MIC for this one? `Cc1cc(C)nc(N2CCN(c3ccc(NC(=O)C(=O)c4c(-c5ccccc5)cc(C)n4CCOc4ccccc4)cc3)CC2)c1`
-- reply 1 to 10 mg/L

-- ask What do we get for `Cc1cc(C)nc(N2CCN(c3ccc(NC(=O)C(=O)c4c(-c5ccccc5)cc(C)n4Cc4coc(C)n4)cc3)CC2)c1` ?
-- reply 1 to 10 mg/L

====

# Candida albicans: MIC values follow

See these solved cases before continuing.
1. COCCn1ccc(-c2cccc(Cl)c2)c1C(=O)C(=O)Nc1ccc(N2CCN(c3cc(C)cc(C)n3)CC2)cc1 1 to 10 µg/mL
2. COCCn1c(C)cc(-c2ccccc2)c1C(=O)C(=O)Nc1ccc(N2CCN(c3cc(C)cc(C)n3)CC2)cc1 1 to 10 µg/mL
3. COCCn1c(C)cc(-c2ccccc2)c1C(=O)C(=O)Nc1ccc(N2CCN(CC(C)(C)C)CC2)cc1F < 1 µg/mL
4. Cc1cc(C)nc(N2CCN(c3ccc(NC(=O)C(=O)c4c(-c5ccccc5)cc(C)n4CCN(C)C)cc3)CC2)c1 < 1 µg/mL

-- ask What is its MIC for Candida albicans? Entry: `COCCn1ccc(-c2ccsc2)c1C(=O)C(=O)Nc1ccc(N2CCN(c3cc(C)cc(C)n3)CC2)cc1`
-- reply < 1 µg/mL

-- ask What do we get for `COCCn1ccc(CC(C)C)c1C(=O)C(=O)Nc1ccc(N2CCN(c3cc(C)cc(C)n3)CC2)cc1` ?
-- reply < 1 µg/mL

-- ask What do we get for `Cc1cc(C)nc(N2CCN(c3ccc(NC(=O)C(=O)c4c(-c5cccs5)cc(C)n4C)cc3)CC2)c1` ?
-- reply < 1 µg/mL

Data provenance: patent US8993574B2
